Data provenance is the supplement of paper PMC10567573.

Provide the recorded protein stability index for the entries that follow.
B1: TMEM175 (parent)
chain: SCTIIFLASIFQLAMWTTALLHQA

Variants of: B1
procedure-details: protein stability index of a GFP-peptide fusion (GPS, HEK-293T) (PSI 1-6); higher = more stable;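 further: lentivirally expressed fusions sorted by FACS into six bins by GFP to DsRed ratio, PSI derived from sequencing read proportions per bin multiplied by bin number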
experimental-context: c terminus: a fixed tail appended
Write the value as a bare number.

Reported protein stability index for C2N was 4.36

Reported protein stability index for C2V was 3.64

Reported protein stability index for M15N was 2.51
